The following compounds are shown together with reported Effect on weed grasses (evaluation scheme number), Echinochloa values.
System: Echinochloa
Experiment: Post-emergence greenhouse pot trial, Echinochloa (Example I, Table I)
Assay type: in vivo
Settings: greenhouse pots, 0.15 kg/hectare, 4 weeks
reported-property: Effect on weed grasses (evaluation scheme number), Echinochloa

- COC(=O)C(C)Oc1ccc(Oc2ccc(Cl)cc2Cl)cc1 (centres unmarked) [A, reference compound]: 4 (90.0 to <95.0)
- CC(C)OC(=O)C(C)Oc1ccc(Oc2ccc(Br)cc2Cl)cc1 (centres unmarked) [Compound 1c]: 1 (100)
- CCCCOC(=O)C(C)Oc1ccc(Oc2ccc(Br)cc2Cl)cc1 (centres unmarked) [Compound 1d]: 2 (97.5 to <100)
- CCOC(=O)C(C)Oc1ccc(Oc2ccc(Br)cc2Cl)cc1 (centres unmarked) [Compound 1b]: 1 (100)
- COC(=O)C(C)Oc1ccc(Oc2ccc(Br)cc2Cl)cc1 (centres unmarked) [Compound 1a]: 2 (97.5 to <100)

---

The following compounds are shown together with reported Effect on weed grasses (evaluation scheme number), Alopecurus values.
Tested on: Alopecurus
Assay: Post-emergence greenhouse pot trial, annual blackgrass (Example I, Table I)
Type: in vivo, annual blackgrass (Alopecurus)
Conditions: greenhouse pots, 0.15 kg/hectare, 4 weeks
reported-property: Effect on weed grasses (evaluation scheme number), Alopecurus

- CCOC(=O)C(C)Oc1ccc(Oc2ccc(Br)cc2Cl)cc1 (centres unmarked) [Compound 1b]: 6 (75.0 to <85.0)
- CC(C)OC(=O)C(C)Oc1ccc(Oc2ccc(Br)cc2Cl)cc1 (centres unmarked) [Compound 1c]: 6 (75.0 to <85.0)
- COC(=O)C(C)Oc1ccc(Oc2ccc(Cl)cc2Cl)cc1 (centres unmarked) [A, reference compound]: 8 (32.5 to <65.0)
- CCCCOC(=O)C(C)Oc1ccc(Oc2ccc(Br)cc2Cl)cc1 (centres unmarked) [Compound 1d]: 3 (95.0 to <.97.5)
- COC(=O)C(C)Oc1ccc(Oc2ccc(Br)cc2Cl)cc1 (centres unmarked) [Compound 1a]: 3 (95.0 to <.97.5)

---

The following compounds are shown together with reported Effect on weed grasses (evaluation scheme number), Lolium values.
Test system: Lolium
Assay: Post-emergence greenhouse pot trial, Lolium (Example I, Table I)
Format: in vivo
Settings: greenhouse pots, 0.15 kg/hectare, 4 weeks
reported-property: Effect on weed grasses (evaluation scheme number), Lolium

* CCOC(=O)C(C)Oc1ccc(Oc2ccc(Br)cc2Cl)cc1 (centres unmarked) | 6 (75.0 to <85.0)
* CC(C)OC(=O)C(C)Oc1ccc(Oc2ccc(Br)cc2Cl)cc1 (centres unmarked) | 5 (85.0 to <90.0)
* COC(=O)C(C)Oc1ccc(Oc2ccc(Br)cc2Cl)cc1 (centres unmarked) | 5 (85.0 to <90.0)
* CCCCOC(=O)C(C)Oc1ccc(Oc2ccc(Br)cc2Cl)cc1 (centres unmarked) | 6 (75.0 to <85.0)
* COC(=O)C(C)Oc1ccc(Oc2ccc(Cl)cc2Cl)cc1 (centres unmarked) [A, reference compound] | 7 (65.0 to <75.0)

---

Tested on: Lolium
Experiment: Post-emergence greenhouse pot trial, Lolium (Example I, Table I)
Assay type: in vivo
Details: greenhouse pots, 2.5 kg/hectare, 4 weeks
reported-property: Effect on weed grasses (evaluation scheme number), Lolium

- COC(=O)C(C)Oc1ccc(Oc2ccc(Br)cc2Cl)cc1 (centres unmarked): 2 (97.5 to <100)
- CC(C)OC(=O)C(C)Oc1ccc(Oc2ccc(Br)cc2Cl)cc1 (centres unmarked): 3 (95.0 to <.97.5)
- COC(=O)C(C)Oc1ccc(Oc2ccc(Cl)cc2Cl)cc1 (centres unmarked) [A, reference compound]: 3 (95.0 to <.97.5)
- CCOC(=O)C(C)Oc1ccc(Oc2ccc(Br)cc2Cl)cc1 (centres unmarked): 1 (100)
- CCCCOC(=O)C(C)Oc1ccc(Oc2ccc(Br)cc2Cl)cc1 (centres unmarked): 2 (97.5 to <100)

---

The following compounds are shown together with reported Effect on weed grasses (evaluation scheme number), Echinochloa values.
System: Echinochloa
Assay: Post-emergence greenhouse pot trial, Echinochloa (Example I, Table I)
Type: in vivo
Conditions: greenhouse pots, 0.62 kg/hectare, 4 weeks
reported-property: Effect on weed grasses (evaluation scheme number), Echinochloa

- COC(=O)C(C)Oc1ccc(Oc2ccc(Br)cc2Cl)cc1 (centres unmarked): 2 (97.5 to <100)
- CC(C)OC(=O)C(C)Oc1ccc(Oc2ccc(Br)cc2Cl)cc1 (centres unmarked): 1 (100)
- CCCCOC(=O)C(C)Oc1ccc(Oc2ccc(Br)cc2Cl)cc1 (centres unmarked): 1 (100)
- CCOC(=O)C(C)Oc1ccc(Oc2ccc(Br)cc2Cl)cc1 (centres unmarked): 1 (100)
- COC(=O)C(C)Oc1ccc(Oc2ccc(Cl)cc2Cl)cc1 (centres unmarked) [A, reference compound]: 3 (95.0 to <.97.5)

---

The following compounds are shown together with reported Effect on weed grasses (evaluation scheme number), Alopecurus values.
System: Alopecurus
Experiment: Post-emergence greenhouse pot trial, annual blackgrass (Example I, Table I)
Assay type: in vivo, annual blackgrass (Alopecurus)
Details: greenhouse pots, 2.5 kg/hectare, 4 weeks
reported-property: Effect on weed grasses (evaluation scheme number), Alopecurus

* CCCCOC(=O)C(C)Oc1ccc(Oc2ccc(Br)cc2Cl)cc1 (centres unmarked) [Compound 1d] | 1 (100)
* CC(C)OC(=O)C(C)Oc1ccc(Oc2ccc(Br)cc2Cl)cc1 (centres unmarked) [Compound 1c] | 1 (100)
* CCOC(=O)C(C)Oc1ccc(Oc2ccc(Br)cc2Cl)cc1 (centres unmarked) [Compound 1b] | 1 (100)
* COC(=O)C(C)Oc1ccc(Oc2ccc(Br)cc2Cl)cc1 (centres unmarked) [Compound 1a] | 1 (100)
* COC(=O)C(C)Oc1ccc(Oc2ccc(Cl)cc2Cl)cc1 (centres unmarked) [A, reference compound] | 4 (90.0 to <95.0)

---

Tested on: weed grasses
Experiment: Pre-emergence greenhouse pot trial, weed grasses overall (Example V)
Type: in vivo
Conditions: in words
reported-property: effect in pre-emergence treatment compared with comparative compound A

• CCCCOC(=O)C(C)Oc1ccc(Oc2ccc(Br)cc2Cl)cc1 (stereo not shown) = Analogous results
• CC(C)OC(=O)C(C)Oc1ccc(Oc2ccc(Br)cc2Cl)cc1 (stereo not shown) = Analogous results
• CCOC(=O)C(C)Oc1ccc(Oc2ccc(Br)cc2Cl)cc1 (stereo not shown) = Analogous results

meta.source: patent US4370489A
